Assign IC50 to each entry below.
molecular target: HCV NS5B (Hepatitis C virus genotype 1b); construct: fusion protein, of which the carboxyl terminal 21 amino acids were removed to enhance its solubility; His tag (GSHHHHHH); made in house; host or cells: E. coli; experiment: Inhibition of viral RNA-dependent RNA polymerase (RdRp), in vitro biochemical assay; design: species or system HCV genotype 1b virus (BB7); conditions: HCV NS5B RdRp, BB7; reported as range class; read-out: HCV pol-BB7 IC50

Answered examples (5):
{"RECORD_SMILES": "CNC(=O)c1c(-c2ccc(F)cc2)oc2cc(N3CCOCC3)c(OCc3c(C)noc3C)cc12", "IC50": "0.5 to 5 µM"}
{"RECORD_SMILES": "CNC(=O)c1c(-c2ccc(F)cc2)oc2cc(N3CC[S+]([O-])CC3)c(OC(C)C)cc12", "IC50": "5 to 30 µM"}
{"RECORD_SMILES": "CNC(=O)c1c(-c2ccc(F)cc2)oc2cc(N3CCOCC3)c(OCc3nsc(Cl)n3)cc12", "IC50": "0.5 to 5 µM"}
{"RECORD_SMILES": "CNC(=O)c1c(-c2ccc(F)cc2)oc2cc(O)c(O)cc12", "IC50": "5 to 30 µM"}
{"RECORD_SMILES": "CCNC(=O)c1c(-c2ccc(F)cc2)oc2cc(NS(C)(=O)=O)c(OC(C)C)cc12", "IC50": "≤ 0.5 µM"}

Need IC50 for each of these molecules.
1. CNC(=O)c1c(-c2ccc(F)cc2)oc2cc(N(C3CCC3)S(C)(=O)=O)c(OC(C)C)cc12
2. CNC(=O)c1c(-c2ccc(F)cc2)oc2cc(O)c(OC)cc12

Output:
1. ≤ 0.5 µM
2. 0.5 to 5 µM

Input: Can you look up the measured IC50 of CNC(=O)c1c(-c2ccc(F)cc2)oc2cc(N3CCOCC3)c(OCc3nnc(-c4ccc(C)cc4)o3)cc12 for me?
Output: 5 to 30 µM
